# tgt: PcrV of P. aeruginosa strain PA103 (on TTSS-induced bacteria) (Pseudomonas aeruginosa strain PA103)
# measurementProtocol: cell-based or functional assay
Label no (0) if % inhibition in P3X63 cytotoxicity assay, extract 1/150 falls below 60%; label yes (1) in every other case.

INSERT INTO results (binder, labelvalue) VALUES
  ('Nanobody 259 (1E11-40GS-5H01) (VHH) EVQLVESGGGLVQPGGSLRLSCAASGSTRSVNPMAWFRQAPGRQREWVATISRSGYATYADSVKGRFTISGDNAKSSVYLQMNSLKPEDTAVYYCVTGTYWGQGTLVTVSSGGGGSGGGGSGGGGSGGGGSGGGGSGGGGSGGGGSGGGGSEVQLVESGGGLVQPGGSLRLSCAASGSTLDYYAIGWFRQAPGKEREGVSCTSNSGSTYYGGSVKGRFTASRDNAKNTVYLQMNSLRPEDTAVYYCVATIGCATLGGTLDVQRYYYRGQGTLVTVSS', 'no (0)'),
  ('Nanobody 319 (13F07-40GS-6B05) (VHH) EVQLVESGGGLVQAGGSLRLSCAASGNTFSTNPMYWYRQAEGKQRELVASISSRGITNYADSVRGRFSISRDNTKDTVYLQMNSLKPEDTAVYYCRLASLSSGTVYWGKGTLVTVSSGGGGSGGGGSGGGGSGGGGSGGGGSGGGGSGGGGSGGGGSEVQLVESGGGLVQPGGSLRLSCAASGSIFSINTMGWYRQAPGKQRELVSTITSNLVPHYADSVQGRFTISRDNARNTVYLQMNSLKPQDTAHYYCNAWARSSGATPYTNYWGQGTLVTVSS', 'no (0)'),
  ('Nanobody 271 (7C10-40GS-14E10) (VHH) EVQLVESGGGLVQAGGSLRLSCTASGRTLSSYTMGWFRQAPGTEREFVAAMTRSGFNTYYADSVKGRFTISRDSTENTMALQMSSLKPEDTAVYYCTAGRGLTSYRADYWGQGTLVTVSSGGGGSGGGGSGGGGSGGGGSGGGGSGGGGSGGGGSGGGGSEVQLVESGGGLVQPGGSLRLSCAASGRIFSINTMGWYRQAPGKQRELVAGVTINAITNYADSVKGRFTISRDNAKNTVWLQMNSLKPEDTAVYYCHAWARSSGSAPYSQNWGQGTLVTVSS', 'no (0)'),
  ('Nanobody 257 (13F07-40GS-2B10) (VHH) EVQLVESGGGLVQAGGSLRLSCAASGNTFSTNPMYWYRQAEGKQRELVASISSRGITNYADSVRGRFSISRDNTKDTVYLQMNSLKPEDTAVYYCRLASLSSGTVYWGKGTLVTVSSGGGGSGGGGSGGGGSGGGGSGGGGSGGGGSGGGGSGGGGSEVQLVESGGGLVQPGGSLRLSCAASGSIFSINNMGWYRQAPGKQRELVTVVTSNLITTYADSVKGRFTISRDNAKNTVYLQMNSLKPEDTAVYYCNAWARSVGSVPYSQFWGQGTLVTVSS', 'yes (1)'),
  ('Nanobody 275 (2G09-40GS-5H01) (VHH) EVQLVESGGGLVQPGGSLRLSCAASGSFGDNYELYAMTWFRQAPGERRDFVASVTGDGSTSYADSVKDRFTISRDNAKKLMYLQMNSLKPEDTAVYYCRLLNYWGQGTLVTVSSGGGGSGGGGSGGGGSGGGGSGGGGSGGGGSGGGGSGGGGSEVQLVESGGGLVQPGGSLRLSCAASGSTLDYYAIGWFRQAPGKEREGVSCTSNSGSTYYGGSVKGRFTASRDNAKNTVYLQMNSLRPEDTAVYYCVATIGCATLGGTLDVQRYYYRGQGTLVTVSS', 'yes (1)'),
  ('Nanobody 256 (13F07-40GS-5H01) (VHH) EVQLVESGGGLVQAGGSLRLSCAASGNTFSTNPMYWYRQAEGKQRELVASISSRGITNYADSVRGRFSISRDNTKDTVYLQMNSLKPEDTAVYYCRLASLSSGTVYWGKGTLVTVSSGGGGSGGGGSGGGGSGGGGSGGGGSGGGGSGGGGSGGGGSEVQLVESGGGLVQPGGSLRLSCAASGSTLDYYAIGWFRQAPGKEREGVSCTSNSGSTYYGGSVKGRFTASRDNAKNTVYLQMNSLRPEDTAVYYCVATIGCATLGGTLDVQRYYYRGQGTLVTVSS', 'yes (1)'),
  ('Nanobody 261 (5H01-40GS-2B10) (VHH) EVQLVESGGGLVQPGGSLRLSCAASGSTLDYYAIGWFRQAPGKEREGVSCTSNSGSTYYGGSVKGRFTASRDNAKNTVYLQMNSLRPEDTAVYYCVATIGCATLGGTLDVQRYYYRGQGTLVTVSSGGGGSGGGGSGGGGSGGGGSGGGGSGGGGSGGGGSGGGGSEVQLVESGGGLVQPGGSLRLSCAASGSIFSINNMGWYRQAPGKQRELVTVVTSNLITTYADSVKGRFTISRDNAKNTVYLQMNSLKPEDTAVYYCNAWARSVGSVPYSQFWGQGTLVTVSS', 'no (0)'),
  ('Nanobody 277 (5H01-40GS-11B09) (VHH) EVQLVESGGGLVQPGGSLRLSCAASGSTLDYYAIGWFRQAPGKEREGVSCTSNSGSTYYGGSVKGRFTASRDNAKNTVYLQMNSLRPEDTAVYYCVATIGCATLGGTLDVQRYYYRGQGTLVTVSSGGGGSGGGGSGGGGSGGGGSGGGGSGGGGSGGGGSGGGGSEVQLVESGGGLVQAGGSLRLSCAASRLTFNHYNMGWFRQAPGKERERVAEVTWSGDKIYYVDSVKGRFTISRDNTPNPVYLYLQMNSLKPEDTAVYYCATAPRGLPYANGYWGQGTLVTVSS', 'yes (1)'),
  ('Nanobody 335 (5H01-40GS-1E11) (VHH) EVQLVESGGGLVQPGGSLRLSCAASGSTLDYYAIGWFRQAPGKEREGVSCTSNSGSTYYGGSVKGRFTASRDNAKNTVYLQMNSLRPEDTAVYYCVATIGCATLGGTLDVQRYYYRGQGTLVTVSSGGGGSGGGGSGGGGSGGGGSGGGGSGGGGSGGGGSGGGGSEVQLVESGGGLVQPGGSLRLSCAASGSTRSVNPMAWFRQAPGRQREWVATISRSGYATYADSVKGRFTISGDNAKSSVYLQMNSLKPEDTAVYYCVTGTYWGQGTLVTVSS', 'no (0)');

Source listed as patent US20190055322A1.
